Target of assay: human p38alfa (SAPKa) enzyme (Homo sapiens, UniProt Q16539)
Sequence (Q16539 whole entry): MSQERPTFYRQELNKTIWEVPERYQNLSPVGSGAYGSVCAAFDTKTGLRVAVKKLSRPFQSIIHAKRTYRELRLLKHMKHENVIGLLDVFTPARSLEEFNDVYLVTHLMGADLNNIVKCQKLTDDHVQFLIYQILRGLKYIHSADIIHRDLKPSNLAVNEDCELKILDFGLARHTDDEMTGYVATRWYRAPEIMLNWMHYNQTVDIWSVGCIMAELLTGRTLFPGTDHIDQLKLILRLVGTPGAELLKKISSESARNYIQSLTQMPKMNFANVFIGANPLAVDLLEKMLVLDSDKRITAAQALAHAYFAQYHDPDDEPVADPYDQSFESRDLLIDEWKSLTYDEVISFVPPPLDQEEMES
pIC50: −log10 of the molar value.
Measured parameter: pIC50

INSERT INTO measurements (smiles_text, test_value) VALUES
  ('Cc1cccc(C(=O)c2cc[n+]([O-])c(-c3ccccc3C)c2N)c1', 7.47);

I: Cc1ccccc1-c1c(N)c(C(=O)c2ccccc2Cl)cc[n+]1[O-]
II: Nc1c(C(=O)c2cccc(F)c2)ccnc1-c1cccc2c1OCO2
(Q) Lab log: flag the item ( I or II ) with the smaller pIC50 figure. Let me know the label of the one you choose.
(A) II

###

Tested on: TNFα production in human monocytic cell line THP-1
Method summary: Inhibition of LPS-induced TNFα production in THP-1 cells
Assay type: cell-based
Applied conditions: LPS 10 μg/ml, 5 h, TNFα ELISA
Measured parameter: IC50 (nM)

INSERT INTO assay_data (smiles_text, target_of_assay, test_value) VALUES
  ('Cc1cc(O)ccc1-c1c(N)c(C(=O)c2ccc(F)cc2F)cc[n+]1[O-]', 'TNFα production in human monocytic cell line THP-1', 84),
  ('Nc1c(C(=O)c2ccc(F)cc2F)ccnc1-c1cccc2c1OCO2', 'TNFα production in human monocytic cell line THP-1', 53),
  ('Cc1cccc(C(=O)c2cc[n+]([O-])c(-c3c(F)cccc3F)c2N)c1', 'TNFα production in human monocytic cell line THP-1', 48),
  ('COc1ccccc1C(=O)c1cc[n+]([O-])c(-c2c(C)cccc2C)c1N', 'TNFα production in human monocytic cell line THP-1', 98),
  ('Cc1cc(O)ccc1-c1nccc(C(=O)c2ccc(F)cc2F)c1N', 'TNFα production in human monocytic cell line THP-1', 402),
  ('COc1ccccc1C(=O)c1cc[n+]([O-])c(-c2c(F)cccc2F)c1N', 'TNFα production in human monocytic cell line THP-1', 140),
  ('Nc1c(C(=O)c2cccc(F)c2)ccnc1-c1cccc2c1OCO2', 'TNFα production in human monocytic cell line THP-1', 349),
  ('Nc1c(C(=O)c2ccc(F)cc2F)cc[n+]([O-])c1-c1ccccc1Cl', 'TNFα production in human monocytic cell line THP-1', 76);

A: Cc1ccccc1-c1c(N)c(C(=O)c2ccccc2Cl)cc[n+]1[O-]
B: Nc1c(C(=O)c2ccc(F)cc2F)cc[n+]([O-])c1-c1c(Cl)cccc1Cl
(Q) Could you please tell me which of these two has the higher IC50: A or B ? Let me know the label of the one you choose.
(A) A

I: Cc1cccc(C)c1-c1c(N)c(C(=O)c2ccc(F)cc2F)cc[n+]1[O-]
II: Nc1c(C(=O)c2ccc(F)cc2F)ccnc1-c1ccccc1Cl
(Q) Could you please tell me which of these two has the higher IC50: I or II ? Let me know the label of the one you choose.
(A) II
